Values were extracted from patent US20210054097A1.

Target: T1, FX activation peptide 12-mer SITWKPYDAADL (human)
T1 peptide: SITWKPYDAADL-biotin
Experiment: peptide ELISA
Ends that are not written are not given here.
# Lookup of reported ELISA signal relative to background keyed by entry
measured quantity: ELISA signal relative to background

1) Nb 501A02 (VHH, monovalent control Nanobody; also called control Nanobody; not shown: C-terminal FLAG3 and HIS6 tag) VHH: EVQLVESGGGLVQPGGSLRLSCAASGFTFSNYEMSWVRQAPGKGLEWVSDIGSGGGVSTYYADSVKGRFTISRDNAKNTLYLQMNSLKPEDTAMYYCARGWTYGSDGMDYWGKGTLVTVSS    0.71
2) Nb 730C03 (VHH, monovalent Nanobody; also called Nb 730003; not shown: C-terminal FLAG3 and HIS6 tag) VHH: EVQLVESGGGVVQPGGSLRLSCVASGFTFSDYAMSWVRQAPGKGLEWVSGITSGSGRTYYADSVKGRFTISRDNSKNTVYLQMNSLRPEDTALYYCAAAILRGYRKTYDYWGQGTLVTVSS    1.18
3) Nb 701D07 (VHH, monovalent Nanobody; not shown: C-terminal FLAG3 and HIS6 tag) VHH: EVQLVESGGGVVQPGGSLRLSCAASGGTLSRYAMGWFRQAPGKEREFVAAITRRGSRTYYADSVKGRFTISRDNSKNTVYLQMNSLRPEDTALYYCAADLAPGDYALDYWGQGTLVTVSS    1.04
4) Nb 701B09 (VHH, monovalent Nanobody; also called Nb 701609; not shown: C-terminal FLAG3 and HIS6 tag) VHH: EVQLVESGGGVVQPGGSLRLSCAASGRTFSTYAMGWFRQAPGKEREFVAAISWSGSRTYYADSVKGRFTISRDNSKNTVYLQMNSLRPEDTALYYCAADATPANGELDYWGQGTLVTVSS    0.84
